Reference for the values: PubChem BioAssay (NCATS)

# System: CP335
# experiment_summary: qHTS profiling for inhibitors of Plasmodium falciparum proliferation (AID 504749); also: nearly all actives have a fitted effect of over 60% in size
# condition_set: P. falciparum in erythrocytes, SYBR Green DNA, 72 h; series mostly up to 28.7 µM
Records with an inconclusive call do not appear. Activity calls are given as the source filed them. Calls follow the shape of the dose curve; as a rule, active = well fitted inhibition curve with a large enough effect; inconclusive = small, poorly fitted or top-dose-only effect; inactive = flat fitted curve, though single readings scatter.
Thanks in advance; please answer with one of these: active, inactive

Worked examples, 3 molecules total:
{"columns": ["molecule", "class_label"],
 "data": [
  ["NC(Cc1ccc(Oc2cc(I)c(O)c(I)c2)c(I)c1)C(=O)O (stereo unspecified)", "inactive"],
  ["CN(C)[C@@H](Cc1ccccc1)c1ccccc1", "inactive"],
  ["OC[C@@H](O)[C@H]1O[C@@H]2OC(C(Cl)(Cl)Cl)O[C@H]2[C@H]1O (stereo partly specified)", "inactive"]
]}

Dear all, I need the recorded test outcome for C=CC[N+]1(C)CCC23c4c5ccc(O)c4O[C@H]2C(=O)CC[C@@]3(O)C1C5 (stereo partly specified) , thank you.
inactive

# outcome recorded in this test, key = CC(=O)O[C@H]1C[C@H](O[C@H]2[C@@H](O)CC(O[C@H]3[C@@H](O)C[C@H](O[C@H]4CC[C@@]5(C)[C@H](CC[C@@H]6[C@@H]5CC[C@]5(C)[C@@H](C7=CC(=O)OC7)CC[C@]65O)C4)O[C@@H]3C)O[C@@H]2C)O[C@H](C)[C@H]1O[C@@H]1O[C@H](CO)[C@@H](O)[C@H](O)[C@H]1O (stereo partly specified)
inactive

Could you kindly confirm the outcome this assay logged for COC(C(=O)C(O)C(C)O)C1Cc2cc3cc(OC4CC(OC5CC(O)C(OC)C(C)O5)C(OC(C)=O)C(C)O4)c(C)c(O)c3c(O)c2C(=O)C1OC1CC(OC2CC(OC3CC(C)(O)C(OC(C)=O)C(C)O3)C(O)C(C)O2)C(O)C(C)O1 (stereo unspecified) ?
active

GET /call?item= OCC(O)[C@H]1O[C@@H]2O[C@H](C(Cl)(Cl)Cl)O[C@@H]2[C@H]1O (stereo partly specified) returns the recorded outcome of this test.
inactive

Please indicate how the test categorized O=C1CC2OCC=C3CN4CC[C@]56c7ccccc7N1C5C2[C@H]3C[C@H]46 (stereo partly specified) .
active

GET /call?item= `C[C@H](N)Cc1ccccc1` returns the recorded outcome of this test.
inactive

Which outcome was entered for the molecule CC(=O)[C@H]1CC[C@H]2C3CC[C@H]4C[C@H](O)CC[C@]4(C)C3CC[C@]12C (stereo partly specified) in this test?
inactive

Write down the call the test reported for this molecule. Item: `C#CCN1CC(=O)N(COC(=O)[C@@H]2[C@@H](C=C(C)C)C2(C)C)C1=O`
inactive

###

# Test system: CP265
# experiment_summary: qHTS profiling for inhibitors of Plasmodium falciparum proliferation (AID 504749); also: nearly all actives have a fitted effect of over 60% in size
# condition_set: P. falciparum in erythrocytes, SYBR Green DNA, 72 h; series mostly up to 28.7 µM
Inconclusive results are not listed. Active and inactive are the calls of the source. The call rests on the fitted dose curve; in most records, active means well fitted inhibition curve with a large enough effect; inconclusive means small, poorly fitted or top-dose-only effect; inactive means flat fitted curve, though single readings scatter.
Outcomes you can answer with include only these: yes (1) for active, no (0) for inactive

Solved cases below.
{"columns": ["compound", "class_label"],
 "data": [
  ["C=C1CC2C(CC[C@]3(C)C(=O)CCC23)[C@]2(C)C=CC(=O)C=C12 (some centres undefined)", "no (0)"],
  ["OCC(O)[C@H]1O[C@@H]2O[C@H](C(Cl)(Cl)Cl)O[C@@H]2[C@H]1O (some centres undefined)", "no (0)"],
  ["C#CCN1CC(=O)N(COC(=O)[C@@H]2[C@@H](C=C(C)C)C2(C)C)C1=O", "no (0)"]
]}

Turning now to a further record.
Lab log entry: CCC/C=C/C=C/C(=O)OC1/C(=C/C(=O)OC)CC2CC(C(C)O)OC(=O)CC(O)CC3CC(OC(C)=O)C(C)(C)C(O)(CC4C/C(=C/C(=O)OC)CC(/C=C\C(C)(C)C1(O)O2)O4)O3 (centres undefined) — outcome as called in the assay?
yes (1)

###

# System: AS120
# experiment_summary: qHTS profiling for inhibitors of Plasmodium falciparum proliferation (AID 504749); also: nearly all actives have a fitted effect of over 60% in size
# condition_set: P. falciparum in erythrocytes, SYBR Green DNA, 72 h; series mostly up to 28.7 µM
Results filed as inconclusive are left out. The source made the active and inactive calls. Calls follow the shape of the dose curve; as a rule, active = well fitted inhibition curve with a large enough effect; inconclusive = small, poorly fitted or top-dose-only effect; inactive = flat fitted curve, though single readings scatter.
Choose the fitting class; nothing outside 1 (yes) (active), 0 (no) (inactive) is accepted.

Below, 5 molecules whose answers are already recorded.
{"columns": ["molecule", "assay_target", "class_label"],
 "data": [
  ["Nc1nc(O)c(-c2ccccc2)o1", "AS120", "0 (no)"],
  ["CCC/C=C/C=C/C(=O)OC1/C(=C/C(=O)OC)CC2CC(C(C)O)OC(=O)CC(O)CC3CC(OC(C)=O)C(C)(C)C(O)(CC4C/C(=C/C(=O)OC)CC(/C=C\\C(C)(C)C1(O)O2)O4)O3 (stereo unspecified)", "AS120", "1 (yes)"],
  ["CC1OC(O[C@H]2C[C@@H](O)[C@]3(CO)[C@@H]4C(CC[C@]3(O)C2)[C@@]2(O)CC[C@H](C3=CC(=O)OC3)[C@@]2(C)C[C@H]4O)C(O)C(O)C1O (stereo partly specified)", "AS120", "0 (no)"],
  ["C[C@@H](N)[C@@H](O)c1ccc(O)c(O)c1", "AS120", "0 (no)"],
  ["CC(Cc1ccccc1)N(C)C (stereo unspecified)", "AS120", "0 (no)"]
]}

Read the next record carefully.
I would be grateful if you could indicate the recorded call for `C[C@H](N)Cc1ccccc1` .
0 (no)

###

# assay_target: Glucocorticoid receptor (Homo sapiens)
# experiment_summary: qHTS assay for small molecule agonists of glucocorticoid receptor signaling (AID 588532);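 also: 100% = dexamethasone at 0.1 µM and 0% = DMSO only wells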
# condition_set: HeLa MMTV-bla, beta-lactamase ratio, agonist, 18 h; stronger effect = higher value, percent of dexamethasone control, DMSO zero
Records with an inconclusive call do not appear. Active and inactive are the calls of the source. Calls follow the shape of the dose curve; as a rule, active = well fitted curve in the direction sought with a large enough effect in the signal ratio, with a control signal flat; inconclusive = small, poorly fitted or top-dose-only effect, or a change in a side signal; inactive = no such curve, though single readings can be large or run the other way; the % refers to the signal ratio.
Below, each of the compounds is paired with its reported activation value.

{"columns": ["compound", "readout_kind", "result"],
 "data": [
  ["CCCCOCN(C(=O)CCl)c1c(CC)cccc1CC", "activation", "-1.18% (inactive)"]
]}

Can you share its activation? I mean this compound: CCOP(=O)(NC(C)C)Oc1ccc(S(C)(=O)=O)c(C)c1 (stereo unspecified)
2.64% (inactive)

Field request: activation | item: `C[C@H]1[C@H](c2ccc(Cl)cc2)SC(=O)N1C(=O)NC1CCCCC1`
-1.81% (inactive)

###

# experiment_summary: S16 Schwann cell PMP22 intronic element firefly luciferase assay (AID 624032); also: nearly all actives have a fitted effect of over 30% in size
# condition_set: S16 rat Schwann cells, PMP22 element FLuc, 24 h; series mostly up to 57.5 µM
Records with an inconclusive call do not appear. Activity calls are given as the source filed them. Calls follow the shape of the dose curve; as a rule, active = well fitted inhibition curve with a large enough effect; inconclusive = small, poorly fitted or top-dose-only effect; inactive = no such curve, though single readings can be large or run the other way.
Give your call using only these classes: true (1) for active, false (0) for inactive

Examples with answers:
{"columns": ["compound", "class_label"],
 "data": [
  ["Cc1ncc(C[n+]2csc(CCOP(=O)(O)O)c2C)c(N)n1", "true (1)"],
  ["CCCCCCC(=O)O[C@H]1CC[C@H]2[C@@H]3CCC4CC(=O)C=C(C)[C@]4(C)[C@H]3CC[C@]12C (stereo not given in full)", "true (1)"]
]}

Assay outcome for CCC(=O)OC1(c2ccccc2)CCN(C)CC1C (stereo not given) : what was it?
false (0)

In this assay, the call recorded for `CCN(CC)C(=O)N[C@@H]1C=C2c3cccc4[nH]cc(c34)C[C@H]2N(C)C1` was what?
false (0)

// param item: C=CC[C@]1(O)CCC2C3CCC4=CCCCC4C3CCC21C (stereo not given in full) ; yields the recorded call
true (1)

###

# experiment_summary: qHTS assay for small molecule activators of the p53 signaling pathway (AID 651743); also: % of control where 0% means no effect
# condition_set: HCT-116 p53RE-bla, beta-lactamase FRET ratio, 16 h; stronger effect = higher value
Results filed as inconclusive are left out.
readout_kind: activation (%)
Quick note: give the figure in %, leave out the unit.

Can you look up the measured activation of `O=[As](O)(O)O` for me?
-0.546

Entry CC(C1CC1)C(O)(Cn1cncn1)c1ccc(Cl)cc1 (configuration not stated) : reported activation = ?
-2.39

Please look up its activation: `CCOP(=O)(OCC)SCS(=O)(=O)C(C)(C)C`
2.21

###

# assay_target: Peroxisome proliferator-activated receptor alpha (Homo sapiens)
# experiment_summary: qHTS assay for small molecule agonists of the peroxisome proliferator-activated receptor alpha (PPARalpha) signaling pathway (AID 651778); also: % of control where 0% means no effect
# condition_set: PathHunter PPARalpha complementation, chemiluminescence, 6 h; stronger effect = higher value
# Text: National Center for Advancing Translational Sciences [NCATS] NIH Chemical Genomics Center [NCGC] U.S. Environmental Protection Agency [EPA] National Institutes of Environmental Health Sciences [NIEHS] National Toxicology Program [NTP] The Peroxisome proliferator-activated receptors (PPARs) are lipid-activated transcription factors of the nuclear receptor superfamily with three distinct subtypes (alpha, garmma and beta/delta). […]
# maps each entry to its max response
Your answer should be a plain number; it is taken to be in %.

These recorded examples may help you get a feel for the data.
{"columns": ["compound", "max response [%]"],
 "data": [
  ["CNC(=O)Oc1cc(C)c(SC)c(C)c1", 0.9],
  ["CON(C)C(=O)Nc1ccc(Cl)c(Cl)c1", -1.01],
  ["CCCCC(O)(Cn1cncn1)c1ccc(Cl)cc1Cl (stereo unspecified)", 9.57],
  ["CC(C)CC(C)Nc1ccc(Nc2ccccc2)cc1 (stereo unspecified)", -7.88],
  ["O=C1c2ccccc2C(=O)C1C(=O)C(c1ccccc1)c1ccc(Cl)cc1 (stereo unspecified)", -1.87]
]}

Let us examine a further case.
Param readout = max response; param system = Peroxisome proliferator-activated receptor alpha (Homo sapiens); param query = CCOP(=O)(NC(C)C)Oc1ccc(S(C)(=O)=O)c(C)c1 (stereo unspecified) ; response: value
-2.16
